TEST_SYSTEM: glucocorticoid receptor (Homo sapiens)
Construct: endogenous in cells; ATCC cat
Sequence (P04150 whole entry): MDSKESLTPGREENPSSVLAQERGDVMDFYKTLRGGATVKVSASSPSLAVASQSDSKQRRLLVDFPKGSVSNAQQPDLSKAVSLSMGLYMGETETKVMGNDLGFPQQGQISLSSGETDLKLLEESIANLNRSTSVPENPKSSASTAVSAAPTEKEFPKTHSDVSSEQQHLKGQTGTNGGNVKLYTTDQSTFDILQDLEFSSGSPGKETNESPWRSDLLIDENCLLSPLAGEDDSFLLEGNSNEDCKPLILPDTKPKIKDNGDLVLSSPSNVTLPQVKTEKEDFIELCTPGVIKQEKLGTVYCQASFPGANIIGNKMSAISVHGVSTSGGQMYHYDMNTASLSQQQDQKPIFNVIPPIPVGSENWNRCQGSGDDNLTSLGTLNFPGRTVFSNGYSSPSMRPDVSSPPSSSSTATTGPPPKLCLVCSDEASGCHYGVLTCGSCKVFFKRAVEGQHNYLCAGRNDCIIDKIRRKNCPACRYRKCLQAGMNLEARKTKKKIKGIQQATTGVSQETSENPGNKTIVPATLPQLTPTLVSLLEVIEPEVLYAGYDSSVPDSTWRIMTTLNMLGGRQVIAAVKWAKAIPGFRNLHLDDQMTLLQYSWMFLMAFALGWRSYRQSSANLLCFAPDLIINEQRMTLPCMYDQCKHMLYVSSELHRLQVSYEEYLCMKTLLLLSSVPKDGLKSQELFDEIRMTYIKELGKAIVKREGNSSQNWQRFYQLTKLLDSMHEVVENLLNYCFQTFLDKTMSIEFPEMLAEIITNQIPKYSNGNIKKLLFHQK
TEST_DESCRIPTION: Hep G2 TAT Ki: inhibition of dexamethasone-induced TAT in HepG2 cells (96 well)
ASSAY_CONDITIONS: challenge of 100 nM dexamethasone, IC50 converted to Ki by Cheng and Prusoff equation
Listed here are compounds together with their documented log10 of Ki.
MEASURED_PROPERTY: log10 of Ki (log10 of the value in nM)

>>> number("Cc1cc2c(cnn2-c2ccc(F)cc2)cc1C1CN(S(=O)(=O)C2CCC2)CCN1CC(C)C (single isomer, unassigned)")
1.40
>>> number("Cc1cc2c(cnn2-c2ccc(F)cc2)cc1C1CN(S(=O)(=O)c2cnn(C)n2)CCN1Cc1ccccc1 (single isomer, unassigned) [Example 5]")
2.62
>>> number("Cc1cc2c(cnn2-c2ccc(F)cc2)cc1C1CN(S(=O)(=O)c2cnn(C)n2)CCN1CC1CCOC1 (single isomer, unassigned)")
1.46
>>> number("COc1cc2c(cnn2-c2ccc(F)cc2)cc1C1CN(S(=O)(=O)c2cnn(C)n2)CCN1CC(C)C (stereo not shown)")
1.76
>>> number("Cc1cc2c(cnn2-c2ccc(F)cc2)cc1[C@@H]1CN(S(=O)(=O)c2cnn(C)n2)CCN1C[C@@H](C)C(F)(F)F")
1.28
>>> number("Cc1cc2c(cnn2-c2ccc(F)cc2)cc1C1CN(S(=O)(=O)c2cnn(C)n2)CCN1Cc1ccccc1 (stereo not shown) [Example 2]")
1.91
>>> number("CCn1ncc(S(=O)(=O)N2CCN(CC(C)C)C(c3cc4cnn(-c5ccc(F)cc5)c4cc3C)C2)n1 (stereo not shown) [Example 40]")
1.72
>>> number("CC(=O)N1CCN(CC(C)C)C(c2cc3cnn(-c4ccc(F)cc4)c3cc2C)C1 (stereo not shown)")
2.41
>>> number("CCn1cc(S(=O)(=O)N2CCN(CC(C)C)C(c3cc4cnn(-c5ccc(F)cc5)c4cc3C)C2)nn1 (single isomer, unassigned)")
1.30
>>> number("Cc1cc2c(cnn2-c2ccc(F)cc2)cc1C1CN(S(C)(=O)=O)CCN1CC1CCOCC1 (single isomer, unassigned)")
1.95
>>> number("Cc1cc2c(cnn2-c2ccc(F)cc2)cc1C1CN(S(=O)(=O)c2ccccn2)CCN1CC(C)C(F)(F)F (single isomer, unassigned)")
1.28
>>> number("Cc1cc2c(cnn2-c2ccc(F)cc2)cc1C1CN(S(=O)(=O)c2cccnc2)CCN1CC(C)C(F)(F)F (single isomer, unassigned)")
0.93
>>> number("Cc1cc2c(cnn2-c2ccc(F)cc2)cc1C1CN(S(=O)(=O)c2cnn(C)c2)CCN1CC(C)C (stereo not shown) [Example 7]")
1.79
>>> number("CCn1ncc(S(=O)(=O)N2CCN(CCC(F)(F)F)C(c3cc4cnn(-c5ccc(F)cc5)c4cc3C)C2)n1 (single isomer, unassigned)")
1.36
>>> number("Cc1cc2c(cnn2-c2ccc(F)cc2)cc1C1CN(S(=O)(=O)c2cnn(C)n2)CCN1CC1CCC1 (single isomer, unassigned) [Example 77]")
1.11
>>> number("CO[C@H]1C[C@@H](CN2CCN(S(=O)(=O)c3csc(C)n3)CC2c2cc3cnn(-c4ccc(F)cc4)c3cc2C)C1 (single isomer, unassigned)")
1.38
>>> number("Cc1cc2c(cnn2-c2ccc(F)cc2)cc1C1CN(S(=O)(=O)CC2CCOCC2)CCN1CC(C)C (single isomer, unassigned)")
1.81
>>> number("Cc1nc(S(=O)(=O)N2CCN(CC(C)C)C(c3cc4cnn(-c5ccc(F)cc5)c4cc3C)C2)cs1 (single isomer, unassigned)")
1.28
>>> number("Cc1cc2c(cnn2-c2ccc(F)cc2)cc1C1CN(S(=O)(=O)c2cnn(C)n2)CCN1CC1CC1(F)F (single isomer, unassigned)")
1.51
>>> number("Cc1cc2c(cnn2-c2ccc(F)cc2)cc1C1CN(S(=O)(=O)c2cnn(C)n2)CC(=O)N1Cc1ccccc1 (stereo not shown)")
2.58
>>> number("Cc1cc2c(cnn2-c2ccc(F)cc2)cc1C1CN(S(=O)(=O)c2cn(C)nn2)CCN1CC(C)C (single isomer, unassigned)")
1.45
>>> number("Cc1cc2c(cnn2-c2ccc(F)cc2)cc1[C@H]1CN(S(=O)(=O)c2cnn(C)n2)C[C@@H](C)N1CC(C)C (single isomer, unassigned) [Example 126]")
1.79
>>> number("Cc1ncc(S(=O)(=O)N2CCN(CC(C)C)C(c3cc4cnn(-c5ccc(F)cc5)c4cc3C)C2)s1 (single isomer, unassigned)")
1.04
>>> number("Cc1cc2c(cnn2-c2ccc(F)cc2)cc1C1CN(S(=O)(=O)c2nccs2)CCN1CC(C)C (single isomer, unassigned)")
1.08
>>> number("Cc1cc2c(cnn2-c2ccc(F)cc2)cc1C1CN(S(=O)(=O)c2cnn(C)n2)CCN1CC1COC1 (stereo not shown)")
2.72
